EXPERIMENTAL_TARGET: farnesyl diphosphate synthase (FDPS) (Homo sapiens, UniProt P14324)
Construct: gift of Dr. James E. Dunford (not a commercial vendor)
Sequence (P14324 whole entry, species assumed): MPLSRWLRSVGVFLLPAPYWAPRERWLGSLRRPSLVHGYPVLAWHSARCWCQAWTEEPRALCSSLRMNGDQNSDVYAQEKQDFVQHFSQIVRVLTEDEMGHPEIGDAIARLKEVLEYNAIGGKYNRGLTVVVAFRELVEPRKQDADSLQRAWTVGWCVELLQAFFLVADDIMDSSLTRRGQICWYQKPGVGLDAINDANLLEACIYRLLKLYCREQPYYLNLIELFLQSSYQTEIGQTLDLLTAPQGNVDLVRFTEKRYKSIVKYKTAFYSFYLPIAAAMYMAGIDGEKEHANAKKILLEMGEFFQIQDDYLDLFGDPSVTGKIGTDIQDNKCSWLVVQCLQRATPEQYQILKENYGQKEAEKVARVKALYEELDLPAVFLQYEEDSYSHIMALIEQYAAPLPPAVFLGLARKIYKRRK
PROTOCOL: FDPS enzyme assay (14C-IPP incorporation, GPP substrate)
Assay type: biochemical
RUN_CONDITIONS: 10 µM GPP, 10 min preincubation
RESULT_TYPE: IC50

Consider the molecule CC(C)=CCC/C(C)=C/COC(P(=O)(O)O)P(=O)(O)O and give its measured IC50.
> 10 µM

Consider the molecule CC(C)=CCOC(CC=C(C)C)(P(=O)(O)O)P(=O)(O)O and give its measured IC50.
5.26 µM

Consider the molecule CC(C)=CCC/C(C)=C/CC(C/C=C(\C)CCC=C(C)C)(P(=O)(O)O)P(=O)(O)O [Compound 5, digeranyl bisphosphonate] and give its measured IC50.
> 10 µM

Consider the molecule CC(C)=CCC/C(C)=C/CC(OCC=C(C)C)(P(=O)(O)O)P(=O)(O)O and give its measured IC50.
0.83 µM

Consider the molecule CC(C)=CCC/C(C)=C/CC(OCC[C@@H](C)CCC=C(C)C)(P(=O)([O-])[O-])P(=O)([O-])[O-].[Na+].[Na+].[Na+].[Na+] and give its measured IC50.
> 10 µM

Consider the molecule CC(C)=CCC/C(C)=C/COC(C/C=C(\C)CCC=C(C)C)(P(=O)(O)O)P(=O)(O)O and give its measured IC50.
> 10 µM

Consider the molecule CC(C)=CCC/C(C)=C/COC(CC=C(C)C)(P(=O)(O)O)P(=O)(O)O and give its measured IC50.
> 10 µM
